Hi there, I'd appreciate the recorded viability, T/C for every entry that follows.
system: 967376-340-R-J2-PDC multicell spheroid viability; experiment: Anticancer human tumor 967376-340-R-J2-PDC patient-derived colon adenocarcinoma cell line growth inhibition [PI3K]; conditions: second compound 10 µM; first compound 1 µM; active compounds read low
Numbers only, in %.

Examples with answers:
{"columns": ["compound", "viability, T/C (%)"],
 "data": [
  ["CCCS(=O)(=O)Nc1ccc(F)c(C(=O)c2c[nH]c3ncc(-c4ccc(Cl)cc4)cc23)c1F + Cc1nc(NC(=O)N2CCCC2C(N)=O)sc1-c1ccnc(C(C)(C)C(F)(F)F)c1", 49.6],
  ["CCN1CCN(Cc2ccc(Nc3ncc(F)c(-c4cc(F)c5nc(C)n(C(C)C)c5c4)n3)nc2)CC1 + Cc1nc(NC(=O)N2CCCC2C(N)=O)sc1-c1ccnc(C(C)(C)C(F)(F)F)c1", 27.1],
  ["CCCS(=O)(=O)Nc1ccc(F)c(C(=O)c2c[nH]c3ncc(-c4ccc(Cl)cc4)cc23)c1F + CC(Nc1ncnc2nc[nH]c12)c1cc2cccc(Cl)c2c(=O)n1-c1ccccc1", 88.7],
  ["CC1(C)CCC(CN2CCN(c3ccc(C(=O)NS(=O)(=O)c4ccc(NCC5CCOCC5)c([N+](=O)[O-])c4)c(Oc4cnc5[nH]ccc5c4)c3)CC2)=C(c2ccc(Cl)cc2)C1 + Cc1nc(NC(=O)N2CCCC2C(N)=O)sc1-c1ccnc(C(C)(C)C(F)(F)F)c1", 48.8]
]}

Specify measured viability, T/C for C#Cc1c(F)ccc2cc(O)cc(-c3ncc4c(N5CC6CCC(C5)N6)nc(OCC56CCCN5CC(F)C6)nc4c3F)c12 (stereo not given) + Cc1nc(NC(=O)N2CCCC2C(N)=O)sc1-c1ccnc(C(C)(C)C(F)(F)F)c1 .
37.3

---

tested on: 967376-340-R-J2-PDC multicell spheroid viability; test: Anticancer human tumor 967376-340-R-J2-PDC cell line growth inhibition [PI3K]; conditions: second compound 1 µM; first compound 0.1 µM; active compounds read low;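 further: luminescence used as surrogate of cell viability; spheroids exposed to agents for 7 days before read-out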
measurement.label: viability, T/C (%)
Answers are plain numbers, in %.

{"columns": ["molecule", "viability, T/C (%)"],
 "data": [
  ["Cn1ncc(Cl)c1-c1cc(C(=O)NC(CN)Cc2cccc(F)c2)sc1Cl (stereo not drawn) + CC(Nc1ncnc2nc[nH]c12)c1cc2cccc(Cl)c2c(=O)n1-c1ccccc1", 104]
]}

Hey, quick one: what's viability, T/C for each of these?
1. CC1(C)CCC(CN2CCN(c3ccc(C(=O)NS(=O)(=O)c4ccc(NCC5CCOCC5)c([N+](=O)[O-])c4)c(Oc4cnc5[nH]ccc5c4)c3)CC2)=C(c2ccc(Cl)cc2)C1 + CC(Nc1ccc2c(c1)OCCn1cc(N3C(=O)OCC3C(F)F)nc1-2)C(N)=O
2. CCCS(=O)(=O)Nc1ccc(F)c(C(=O)c2c[nH]c3ncc(-c4ccc(Cl)cc4)cc23)c1F + COc1c(OCCCN2CCOCC2)ccc2c3n(c(=NC(=O)c4cnc(N)nc4)nc12)CCN3

48.1
41.6

---

tested on: 967376-340-R-J2-PDC multicell spheroid viability; test: Anticancer human tumor 967376-340-R-J2-PDC cell line growth inhibition [PI3K]; conditions: second compound 0.316 µM; first compound 0.00316 µM; active compounds read low;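 further: luminescence used as surrogate of cell viability; spheroids exposed to agents for 7 days before read-out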
measurement.label: viability, T/C (%)
Numbers only, in %.

Hey, quick one: what's viability, T/C for each of these?
1. CC(=O)c1c(C)c2cnc(Nc3ccc(N4CCNCC4)cn3)nc2n(C2CCCC2)c1=O + COc1c(OCCCN2CCOCC2)ccc2c3n(c(=NC(=O)c4cnc(N)nc4)nc12)CCN3
2. Cn1ncnc1[C@H]1c2n[nH]c(=O)c3cc(F)cc(c23)N[C@@H]1c1ccc(F)cc1 + Cc1nc(NC(=O)N2CCCC2C(N)=O)sc1-c1ccnc(C(C)(C)C(F)(F)F)c1
3. CC(=O)c1c(C)c2cnc(Nc3ccc(N4CCNCC4)cn3)nc2n(C2CCCC2)c1=O + CC(Nc1ccc2c(c1)OCCn1cc(N3C(=O)OCC3C(F)F)nc1-2)C(N)=O

[37, 50.6, 72.8]

---

Hi there, I'd appreciate the recorded viability, T/C for every entry that follows.
tested on: 967376-340-R-J2-PDC multicell spheroid viability; experiment: Anticancer human tumor 967376-340-R-J2-PDC cell line growth inhibition [PI3K]; details: second compound 0.1 µM; first compound 0.3 µM; active compounds read low;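 further: luminescence used as surrogate of cell viability; spheroids exposed to agents for 7 days before read-out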

Examples with answers:
{"columns": ["molecule", "observed.value"],
 "data": [
  ["Cn1cnc2c(F)c(Nc3ccc(Br)cc3Cl)c(C(=O)NOCCO)cc21 + CC(Nc1ccc2c(c1)OCCn1cc(N3C(=O)OCC3C(F)F)nc1-2)C(N)=O", "49.5%"],
  ["Cn1cnc2c(F)c(Nc3ccc(Br)cc3Cl)c(C(=O)NOCCO)cc21 + Cc1nc(NC(=O)N2CCCC2C(N)=O)sc1-c1ccnc(C(C)(C)C(F)(F)F)c1", "61.8%"],
  ["Cn1cnc2c(F)c(Nc3ccc(Br)cc3Cl)c(C(=O)NOCCO)cc21 + CC(Nc1ncnc2nc[nH]c12)c1cc2cccc(Cl)c2c(=O)n1-c1ccccc1", "102%"]
]}

Let us move to another entry and its viability, T/C.
Specify measured viability, T/C for Cn1cnc2c(F)c(Nc3ccc(Br)cc3Cl)c(C(=O)NOCCO)cc21 + COc1c(OCCCN2CCOCC2)ccc2c3n(c(=NC(=O)c4cnc(N)nc4)nc12)CCN3 .
53.1%

---

Test system: 967376-340-R-J2-PDC multicell spheroid viability
Assay: Anticancer human tumor 967376-340-R-J2-PDC cell line growth inhibition [PI3K];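 further: luminescence used as surrogate of cell viability; spheroids exposed to agents for 7 days before read-out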
Conditions: second compound 10 µM; first compound 3.16 µM; active compounds read low
Description: Combinatorial screen of targeted agents with the PI3K inhibitors inavolisib, alpelisib, duvelisib, and copanlisib in multi-cell type tumor spheroids A high-throughput screen of multi-cell type tumor spheroids was designed to identify active combinations of targeted small molecules and PI3K pathway inhibitors. […] Compounds. […] If the clinical Cmax for an agent had not been determined, the highest concentration tested was 10 microM. […]
measurement.label: viability, T/C (%)
Give bare numbers, in %.

Hey, quick one: what's viability, T/C for each of these?
1. C#Cc1c(F)ccc2cc(O)cc(-c3ncc4c(N5CC6CCC(C5)N6)nc(OCC56CCCN5CC(F)C6)nc4c3F)c12 (stereo unspecified) + Cc1nc(NC(=O)N2CCCC2C(N)=O)sc1-c1ccnc(C(C)(C)C(F)(F)F)c1
2. C[C@@H](NC(=O)c1ncnc(N)c1Cl)c1ncc(C(=O)Nc2cc(C(F)(F)F)c(Cl)cn2)s1 + Cc1nc(NC(=O)N2CCCC2C(N)=O)sc1-c1ccnc(C(C)(C)C(F)(F)F)c1
3. CC1(C)CCC(Nc2ncc(C(F)(F)F)c(-c3c[nH]c4c(P(C)(C)=O)c(C#N)ccc34)n2)CN1 (stereo unspecified) + Cc1nc(NC(=O)N2CCCC2C(N)=O)sc1-c1ccnc(C(C)(C)C(F)(F)F)c1
4. Cn1ncc(Cl)c1-c1cc(C(=O)NC(CN)Cc2cccc(F)c2)sc1Cl (stereo unspecified) + Cc1nc(NC(=O)N2CCCC2C(N)=O)sc1-c1ccnc(C(C)(C)C(F)(F)F)c1
5. CCCS(=O)(=O)Nc1ccc(F)c(C(=O)c2c[nH]c3ncc(-c4ccc(Cl)cc4)cc23)c1F + Cc1nc(NC(=O)N2CCCC2C(N)=O)sc1-c1ccnc(C(C)(C)C(F)(F)F)c1
6. CC(Cn1ccc(-c2ccc(C#N)c(Cl)c2)n1)NC(=O)c1cc(C(C)O)[nH]n1 (stereo unspecified) + CC(Nc1ncnc2nc[nH]c12)c1cc2cccc(Cl)c2c(=O)n1-c1ccccc1
7. Cn1ncc(Cl)c1-c1cc(C(=O)NC(CN)Cc2cccc(F)c2)sc1Cl (stereo unspecified) + CC(Nc1ncnc2nc[nH]c12)c1cc2cccc(Cl)c2c(=O)n1-c1ccccc1
8. C[C@@H](NC(=O)c1ncnc(N)c1Cl)c1ncc(C(=O)Nc2cc(C(F)(F)F)c(Cl)cn2)s1 + CC(Nc1ncnc2nc[nH]c12)c1cc2cccc(Cl)c2c(=O)n1-c1ccccc1

1: 36.1; 2: 61.8; 3: 31.4; 4: 46.7; 5: 65.1; 6: 83.7; 7: 60.3; 8: 107

Hey, quick one: what's viability, T/C for each of these?
1. CC(C)NCC(C(=O)N1CCN(c2ncnc3c2C(C)CC3O)CC1)c1ccc(Cl)cc1 (stereo unspecified) + CC(Nc1ncnc2nc[nH]c12)c1cc2cccc(Cl)c2c(=O)n1-c1ccccc1
2. Cn1nccc1Nc1nccc(-c2ccn(C(CO)c3ccc(Cl)c(F)c3)c(=O)c2)n1 (stereo unspecified) + CC(Nc1ncnc2nc[nH]c12)c1cc2cccc(Cl)c2c(=O)n1-c1ccccc1
3. CCCS(=O)(=O)Nc1ccc(F)c(C(=O)c2c[nH]c3ncc(-c4ccc(Cl)cc4)cc23)c1F + CC(Nc1ncnc2nc[nH]c12)c1cc2cccc(Cl)c2c(=O)n1-c1ccccc1

1. 76.2
2. 76.2
3. 98.7

# credit: PubChem BioAssay AID1963962
